Quick reference for remaining activity at 100 µM among some compounds
- SYSTEM: CETP (Homo sapiens)
- Construct: made in house; host or cells: CHO cells (serum-free conditioned medium)
- Sequence (P11597 18-493): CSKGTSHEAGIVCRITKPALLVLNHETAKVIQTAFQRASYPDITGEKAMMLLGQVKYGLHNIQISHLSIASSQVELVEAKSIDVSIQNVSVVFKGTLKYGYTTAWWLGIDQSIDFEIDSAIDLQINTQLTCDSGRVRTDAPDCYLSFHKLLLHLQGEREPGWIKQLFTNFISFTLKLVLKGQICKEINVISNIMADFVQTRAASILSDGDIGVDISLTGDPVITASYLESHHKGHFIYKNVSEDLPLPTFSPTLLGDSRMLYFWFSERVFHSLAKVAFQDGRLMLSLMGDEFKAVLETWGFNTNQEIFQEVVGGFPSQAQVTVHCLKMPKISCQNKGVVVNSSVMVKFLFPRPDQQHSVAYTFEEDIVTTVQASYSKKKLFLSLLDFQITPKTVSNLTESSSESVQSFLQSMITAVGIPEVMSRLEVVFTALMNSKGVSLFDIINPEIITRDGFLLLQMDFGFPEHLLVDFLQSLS
- PROTOCOL_NOTES: CETP activity in vitro: transfer of [3H]CE from HDL donor to LDL acceptor particles
- Assay type: biochemical
- ASSAY_CONTEXT: 2 h; read-out: % Transfer @ 100 μm

{"COMPOUND": "Cc1c(C(F)(F)F)ncc(C(=O)O)c1Sc1ccc(C(C)C)cc1 [Compound 126]", "remaining activity at 100 µM [%]": 90}
{"COMPOUND": "CCOC(=O)c1cnc(C(F)(F)F)c(OCC)c1O [Compound 114]", "remaining activity at 100 µM [%]": 81}
{"COMPOUND": "CCOC(=O)c1c(C(F)(F)F)ncc(C(=O)OC(C)C)c1O [Compound 101]", "remaining activity at 100 µM [%]": 71}
{"COMPOUND": "COC(=O)c1c(C(F)F)nc(C(F)(F)F)c(C(=N)SC)c1CC1CC1 [Compound 112]", "remaining activity at 100 µM [%]": 78}
{"COMPOUND": "COC(=O)c1c(C(F)F)nc(C(F)(F)F)c(NC(=O)c2sc(Cl)nc2C(F)(F)F)c1CC(C)C [Compound 117]", "remaining activity at 100 µM [%]": 83}
{"COMPOUND": "COC(=O)c1c(C(F)F)nc(C(F)(F)F)c(-c2ncco2)c1CC(C)C [Compound 110]", "remaining activity at 100 µM [%]": 76}
{"COMPOUND": "COC(=O)c1c(OC(C)C)ccnc1C(F)(F)F [Compound 127]", "remaining activity at 100 µM [%]": 90}
{"COMPOUND": "COC(=O)c1c(C(F)F)nc(C(F)(F)F)c(C(N)=S)c1C1CCC1 [Compound 119]", "remaining activity at 100 µM [%]": 84}
{"COMPOUND": "COC(=O)c1c(C(F)F)nc(C(F)(F)F)c(C2CC(C)N(O)C2)c1CC1CC1 (stereo not shown) [Compound 107]", "remaining activity at 100 µM [%]": 75}
{"COMPOUND": "CCOC(=O)c1cnc(C(F)(F)F)c(Oc2ccccc2)c1O [Compound 109]", "remaining activity at 100 µM [%]": 76}

Numbers sourced from patent US6794396B2.
